Hey, just so you know, these numbers are from patent US12581252B2.

- TESTED_ON: H1047R PIK3CA enzyme (Homo sapiens, UniProt P42336, H1047R)
- Sequence (P42336 whole entry H1047R): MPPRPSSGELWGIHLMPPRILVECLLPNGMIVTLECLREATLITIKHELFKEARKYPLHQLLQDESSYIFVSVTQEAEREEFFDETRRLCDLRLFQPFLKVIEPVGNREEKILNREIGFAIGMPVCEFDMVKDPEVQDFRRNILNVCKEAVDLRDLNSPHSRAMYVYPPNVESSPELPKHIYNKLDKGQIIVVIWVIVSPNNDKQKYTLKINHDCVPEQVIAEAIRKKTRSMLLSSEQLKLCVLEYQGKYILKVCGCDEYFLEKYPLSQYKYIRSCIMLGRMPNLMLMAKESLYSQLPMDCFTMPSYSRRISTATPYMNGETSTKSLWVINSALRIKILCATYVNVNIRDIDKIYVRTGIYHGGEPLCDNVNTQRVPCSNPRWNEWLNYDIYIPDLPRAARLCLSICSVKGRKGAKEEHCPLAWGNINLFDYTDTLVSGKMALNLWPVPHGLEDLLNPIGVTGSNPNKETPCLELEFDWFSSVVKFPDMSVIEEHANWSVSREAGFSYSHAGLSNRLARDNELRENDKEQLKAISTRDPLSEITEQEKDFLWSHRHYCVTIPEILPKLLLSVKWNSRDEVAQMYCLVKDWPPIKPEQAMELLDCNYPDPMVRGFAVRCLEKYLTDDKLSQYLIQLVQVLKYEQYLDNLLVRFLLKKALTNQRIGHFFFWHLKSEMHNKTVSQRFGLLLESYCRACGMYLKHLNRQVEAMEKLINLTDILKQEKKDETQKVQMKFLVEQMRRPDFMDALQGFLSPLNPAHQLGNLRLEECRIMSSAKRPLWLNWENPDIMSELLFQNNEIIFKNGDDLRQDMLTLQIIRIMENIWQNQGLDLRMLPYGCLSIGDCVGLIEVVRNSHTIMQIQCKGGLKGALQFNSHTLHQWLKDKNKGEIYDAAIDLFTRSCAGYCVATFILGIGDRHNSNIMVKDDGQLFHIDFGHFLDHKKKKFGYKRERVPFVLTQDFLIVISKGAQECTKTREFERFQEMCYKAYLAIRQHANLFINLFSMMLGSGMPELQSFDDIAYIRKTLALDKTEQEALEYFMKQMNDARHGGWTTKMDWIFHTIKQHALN
- Sequence (P27986 whole entry partner): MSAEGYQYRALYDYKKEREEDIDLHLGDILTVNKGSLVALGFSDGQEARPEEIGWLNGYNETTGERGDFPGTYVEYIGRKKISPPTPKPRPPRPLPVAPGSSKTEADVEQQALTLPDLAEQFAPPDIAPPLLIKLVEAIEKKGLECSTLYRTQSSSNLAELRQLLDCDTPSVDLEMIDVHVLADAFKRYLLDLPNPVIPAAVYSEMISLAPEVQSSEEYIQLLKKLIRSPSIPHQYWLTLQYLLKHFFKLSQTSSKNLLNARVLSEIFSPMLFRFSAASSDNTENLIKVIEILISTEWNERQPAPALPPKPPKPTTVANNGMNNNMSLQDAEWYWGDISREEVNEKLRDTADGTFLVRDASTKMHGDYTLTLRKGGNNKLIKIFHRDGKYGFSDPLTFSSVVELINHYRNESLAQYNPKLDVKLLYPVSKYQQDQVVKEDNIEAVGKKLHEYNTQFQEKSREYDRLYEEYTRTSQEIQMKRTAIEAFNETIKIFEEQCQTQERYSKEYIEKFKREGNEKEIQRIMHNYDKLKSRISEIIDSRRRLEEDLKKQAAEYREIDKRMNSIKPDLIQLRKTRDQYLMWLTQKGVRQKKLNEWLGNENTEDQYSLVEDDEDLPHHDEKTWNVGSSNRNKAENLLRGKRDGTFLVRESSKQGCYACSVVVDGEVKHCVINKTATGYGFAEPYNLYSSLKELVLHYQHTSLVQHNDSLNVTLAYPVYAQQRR
- METHOD_SUMMARY: ADP-Glo Biochemical PIK3CA Kinase Assay
pIC50: −log10 of the molar value.
Reported pIC50 values for the following compounds.

>>> assay_result("CC(C)(O)c1cc(NC(=O)c2nsc3ccccc23)c2c(c1)C(=O)NC2c1ccccc1C(F)F (stereo not drawn)")
"≥ 7.00"
>>> assay_result("O=C1NC(c2cc(F)ccc2Cl)c2c(Nc3ccncc3)cc(Br)cc21 (stereo not drawn)")
"4.00 to 5.00"
>>> assay_result("CC(C)(O)c1cc(NC(=O)c2cc(F)cc(C(F)(F)F)c2)c2c(n1)C(=O)N[C@@H]2c1cc(F)ccc1Cl")
"5.00 to 6.00"
>>> assay_result("N#Cc1cnc2cnc(-c3cc(NC(=O)c4cc(F)cc(C(F)(F)F)c4)c4c(c3)C(=O)N[C@H]4c3cc(F)ccc3Cl)cn12")
"≥ 7.00"

Lookup: Which pIC50 is reported for this compound? CS(C)(=O)=Nc1cc(NC(=O)c2cc(F)cc(C(F)(F)F)c2)c2c(c1)C(=O)NC2c1cc(F)ccc1Cl (stereo not drawn)
Found: 6.30 to 7.00

Lookup: Which pIC50 is reported for this compound? O=C(Nc1cc(-c2cnn(S(=O)(=O)C(F)F)c2)cc2c1C(c1cc(F)ccc1Cl)NC2=O)c1cc(F)cc(C(F)(F)F)c1 (stereo not drawn)
Found: ≥ 7.00

Lookup: Which pIC50 is reported for this compound? Cc1cccc(C2(C(=O)Nc3cc(Br)cc4c3C(c3cc(F)ccc3Cl)NC4=O)CCCC2)c1 (stereo not drawn)
Found: 4.00 to 5.00

Lookup: Which pIC50 is reported for this compound? O=C(Nc1cc(C(O)C2(O)COC2)cc2c1C(c1cc(F)ccc1Cl)NC2=O)c1cc(F)cc(C(F)(F)F)c1 (stereo not drawn)
Found: 6.30 to 7.00

Lookup: Which pIC50 is reported for this compound? COCc1cc(NC(=O)c2cc(F)cc(C(F)(F)F)c2)c2c(c1)C(=O)N[C@H]2c1cc(F)ccc1Cl
Found: ≥ 7.00

Lookup: Which pIC50 is reported for this compound? O=C(Nc1cccc2c1C(c1cc(F)ccc1Cl)NC2=O)c1cc(F)cnc1NC1CCC1 (stereo not drawn)
Found: 5.00 to 6.00

Lookup: Which pIC50 is reported for this compound? O=C(Nc1cc(-c2cc(F)n3ncnc3c2)cc2c1[C@@H](c1cc(F)ccc1Cl)NC2=O)c1cc(F)cc(C(F)(F)F)c1
Found: 5.00 to 6.00

Lookup: Which pIC50 is reported for this compound? O=C1N[C@@H](c2cc(F)ccc2Cl)c2c(NC(=O)[C@@H]3CC[C@H](C(F)(F)F)C3)cccc21
Found: 5.00 to 6.00

Lookup: Which pIC50 is reported for this compound? Cc1cc(Cl)ccc1C1NC(=O)c2cccc(NC(=O)c3nsc4ccccc34)c21 (stereo not drawn)
Found: 5.00 to 6.00

Lookup: Which pIC50 is reported for this compound? O=C(Nc1cccc2c1C(C1CCCC(O)C1)NC2=O)c1cc(F)cc(C(F)(F)F)c1 (mixture of isomers) [Compound I-2226]
Found: 4.00 to 5.00

====

- TESTED_ON: H1047R PIK3CA enzyme (Homo sapiens, UniProt P42336, H1047R)
- METHOD_SUMMARY: ADP-Glo Biochemical PIK3CA Kinase Assay
OBSERVATION_TYPE: IC50

Before answering, review these 6 worked examples.
>>> assay_result("O=C(Nc1cc(Br)cc2c1C(c1cc(F)ccc1Cl)NC2=O)c1cccc(C(F)(F)F)c1 (stereo not shown)")
"100 to 500 nM"
>>> assay_result("N#Cc1cnc2ccc(-c3cc(NC(=O)c4cc(F)cc(C(F)(F)F)c4)c4c(c3)C(=O)N[C@H]4c3cc(F)ccc3Cl)cn12")
"≤ 100 nM"
>>> assay_result("CN(C)S(=O)(=O)n1cc(-c2cc(NC(=O)c3cc(F)cc(C(F)(F)F)c3)c3c(c2)C(=O)NC3c2cc(F)ccc2Cl)cn1 (stereo not shown)")
"≤ 100 nM"
>>> assay_result("O=C1NC(c2cc(F)ccc2Cl)c2c(NC(=O)C3(c4cccc(F)c4)CCCC3)cc(Br)cc21 (stereo not shown)")
"10000 to 100000 nM"
>>> assay_result("O=C1N[C@@H](c2cc(F)ccc2Cl)c2c(NC(=O)N3C[C@@](O)(C(F)(F)F)c4cc(F)ccc43)cc(C3COC3)cc21 (single isomer, unassigned)")
"500 to 1000 nM"
>>> assay_result("COCc1cc2c(c(N(C)C(=O)c3nsc4ccccc34)c1)C(c1ccccc1C)NC2=O (stereo not shown)")
"10000 to 100000 nM"

Now let's try a different one.
Lookup: Which IC50 is reported for this compound? CC(=O)Nc1cc(NC(=O)c2cc(F)cc(C(F)(F)F)c2)c2c(c1)C(=O)N[C@H]2c1cc(F)ccc1Cl
Found: ≤ 100 nM
